- Target or test system: SARS-COV-2 RBD extracellular domain expressed with a C-terminal mouse IgG2a Fc (SARS-CoV-2)
- Method description: Biacore SPR, mAb captured on anti-hFc, 37 C
Metric: kon
# do not omit the unit; it follows the number

Form field kon, entry mAb15160 (antibody, V domains shown) VH: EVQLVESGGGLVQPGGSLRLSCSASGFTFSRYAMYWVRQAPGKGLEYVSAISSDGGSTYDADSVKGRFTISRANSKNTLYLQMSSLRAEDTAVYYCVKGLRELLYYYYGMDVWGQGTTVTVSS VL: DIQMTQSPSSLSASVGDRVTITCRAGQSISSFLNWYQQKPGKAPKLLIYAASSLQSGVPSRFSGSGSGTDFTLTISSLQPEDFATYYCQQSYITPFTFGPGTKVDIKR : 436000 M⁻¹ s⁻¹

Form field kon, entry mAb14286 (antibody, V domains shown) VH: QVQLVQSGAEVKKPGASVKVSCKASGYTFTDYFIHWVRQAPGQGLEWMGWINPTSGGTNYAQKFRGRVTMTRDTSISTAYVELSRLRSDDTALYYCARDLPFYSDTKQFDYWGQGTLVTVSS VL: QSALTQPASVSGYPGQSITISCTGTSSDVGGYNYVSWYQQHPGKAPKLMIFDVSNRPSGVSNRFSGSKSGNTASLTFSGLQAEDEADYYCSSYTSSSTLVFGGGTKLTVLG : 2.94e+06 M⁻¹ s⁻¹

Form field kon, entry mAb14312 (antibody, V domains shown) VH: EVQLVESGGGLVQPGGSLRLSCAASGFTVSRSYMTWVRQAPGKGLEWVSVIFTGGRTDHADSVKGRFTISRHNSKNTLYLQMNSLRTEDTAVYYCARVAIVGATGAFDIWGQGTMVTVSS VL: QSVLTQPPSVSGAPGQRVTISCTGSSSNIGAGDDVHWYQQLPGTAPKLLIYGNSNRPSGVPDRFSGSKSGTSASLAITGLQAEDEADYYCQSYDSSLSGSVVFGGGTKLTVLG : 1.67e+06 M⁻¹ s⁻¹
